Assay: Inhibition of human 20S proteasome by fluorescence spectroscopy
log10 of IC50 overview
Measured Parameter: log10 of IC50 (log10 of the value in nM)

* O=C1CN(/N=C/[C@H](Cc2c[nH]c3ccccc23)NC(=O)[C@H](Cc2c[nH]c3ccccc23)NC(=O)[C@H](Cc2c[nH]c3ccccc23)NC(=O)OCc2ccccc2)C(=O)N1 | 3.04
* O=C1CN(/N=C/[C@H](Cc2ccccc2)NC(=O)[C@H](Cc2c[nH]c3ccccc23)NC(=O)[C@H](Cc2c[nH]c3ccccc23)NC(=O)CCc2ccc(O)cc2)C(=O)N1 | 2.00
* NC(=O)N/N=C/[C@H](Cc1c[nH]c2ccccc12)NC(=O)[C@H](Cc1c[nH]c2ccccc12)NC(=O)[C@H](Cc1c[nH]c2ccccc12)NC(=O)OCc1ccccc1 | 2.00
* O=C1CN(/N=C/[C@H](Cc2ccccc2)NC(=O)[C@H](Cc2c[nH]c3ccccc23)NC(=O)[C@H](Cc2c[nH]c3ccccc23)NC(=O)OCc2ccncc2)C(=O)N1 | 3.20
* O=C1CN(/N=C/[C@H](Cc2ccccc2)NC(=O)[C@H](Cc2c[nH]c3ccccc23)NC(=O)[C@H](Cc2c[nH]c3ccccc23)NC(=O)OCc2ccccc2)C(=O)N1 | 2.30
* O=C1CN(/N=C/[C@H](Cc2ccccc2)NC(=O)[C@H](Cc2c[nH]c3ccccc23)NC(=O)[C@H](Cc2c[nH]c3ccccc23)NC(=O)CCCCC2SCC3NC(=O)NC32)C(=O)N1 (stereo partly drawn) | 2.00
* NC(=O)N/N=C/[C@H](Cc1ccccc1)NC(=O)[C@H](Cc1c[nH]c2ccccc12)NC(=O)[C@H](Cc1c[nH]c2ccccc12)NC(=O)OCc1ccccc1 | 2.30
* O=C1CN(/N=C/[C@@H](Cc2ccccc2)NC(=O)[C@H](Cc2c[nH]c3ccccc23)NC(=O)[C@H](Cc2c[nH]c3ccccc23)NC(=O)OCc2ccccc2)C(=O)N1 | 2.60

Data origin, for the record: ChEMBL document CHEMBL1149859
